Hey, just so you know, these numbers are from PubChem BioAssay (NCI).

System: HL-60(TB) leukemia
Assay: NCI tumour cell line growth inhibition, 48 h
quantity_measured: TGI

Some compounds with known TGI results, for comparison:
Case C/C(=N\NC(=S)N(C)C)c1ncc[nH]1 , HL-60(TB) leukemia, TGI recorded as 5.87 µM

The compound CCOC(=O)c1cc2c(cc1Cl)SC(N(c1ccc(F)cc1)S(=O)(=O)c1ccc(OC)cc1)=NS2(=O)=O on HL-60(TB) leukemia: TGI was 42.4 µM

Given the compound CCCCCC(=O)N1c2ccccc2NC2=C(C(=O)CC(c3ccc(OC)c(OC)c3)C2)C1c1ccc(C(F)(F)F)cc1 (centres undefined) and test system HL-60(TB) leukemia, the measured TGI is > 100 µM

Record for c1ccc(-c2nc(Nc3ccc(-c4nc5ccccc5[nH]4)cc3)nc(N3CCOCC3)n2)cc1 under target or system HL-60(TB) leukemia: TGI reported as 0.601 µM

Log: HL-60(TB) leukemia, compound Oc1ccccc1C=Nc1ccc(Oc2ccc(Cl)cc2)c(Cl)c1 , TGI = 65.4 µM

***
Given the compound COC(=O)n1c(=O)nc2c3c(ncn21)Oc1c(c(-c2ccccc2)nn1-c1ccccc1)C3c1ccc(Cl)cc1 (centres undefined) and test system HL-60(TB) leukemia, the measured TGI is 3.17 µM

GET /values?item= N#CCCc1nc2ccc(Br)cc2c(=O)n1-c1ccc(O)c([N+](=O)[O-])c1 &system= HL-60(TB) leukemia returns TGI: 41.9 µM

HL-60(TB) leukemia assay, compound COC(=O)c1c2c(c(C)[n+]([O-])c1C)C(=O)C=C(NCc1ccc(Cl)cc1)C2=O , recorded TGI = 1.55 µM

CCCCCCN1C(=O)/C(=c2\sc3n(c2=O)C2C(NN=3)N(CC)C(=O)N2CC)c2ccccc21 (centres undefined) on HL-60(TB) leukemia gives TGI = 43.9 µM
